// values below are reported AC50
test system: TFEB; test: TFEB nuclear translocation assay, HeLa wt cells; type: cell-based; details: Homo sapiens, HeLa, 2 h, 2 hrs compound treatment, Table 1 does not say HeLa wt or TRPML1 KO
measured_metric: AC50

compound	reported
CC(C)(C)C(=O)N1CCN(c2ccccc2NS(=O)(=O)C2CCc3ccccc3C2)CC1 (stereo not drawn)	≥ 10000 nM
CC(N1CCN(c2ccccc2NS(=O)(=O)c2ccc(Cl)cc2)CC1)C(F)(F)F (stereo not drawn)	≤ 2000 nM
O=C(c1ccc(S(=O)(=O)Nc2ccccc2N2CCC(c3ccc(Cl)cc3F)CC2)cc1)N1CCCC1	≥ 10000 nM
CC(c1cccc(F)c1N1CCC(CN2C[C@@H](C)O[C@@H](C)C2)CC1)S(=O)(=O)c1ccc2c(c1)CCC2 (single isomer, unassigned)	≤ 2000 nM
COCC1(C)CCN(c2ccccc2NS(=O)(=O)c2ccc3c(c2)OC(C)(C)O3)CC1	≤ 2000 nM
CN1CC2(CCN(c3ccccc3NS(=O)(=O)c3ccc(S(=O)(=O)C(F)F)cc3)CC2)c2ccc(F)cc21	≤ 2000 nM
COc1ccc(S(=O)(=O)Nc2ccccc2N2CCC(Cc3ccc(F)cc3F)C2)cc1 (stereo not drawn)	≥ 10000 nM
O=S(=O)(Nc1ccccc1N1CCC(c2ccc(Cl)cc2F)CC1)c1ccc(C(F)(F)F)cc1	≤ 2000 nM
COc1ccc(S(=O)(=O)Nc2ccc3c(cnn3C)c2N2CCN(c3ncc(Cl)cc3F)CC2)cc1	≤ 2000 nM
C[C@@H]1CN(CC2CCN(c3c(F)cccc3NS(=O)(=O)c3ccc4c(c3)CCC4)CC2)C[C@H](C)O1	≤ 2000 nM
CS(=O)(=O)c1ccc(S(=O)(=O)Nc2ccccc2N2CCC3(CC2)CN(Cc2cccnc2)c2cc(F)ccc23)cc1	≤ 2000 nM
O=S(=O)(Nc1ccccc1N1CCOCC1)c1ccc2c(c1)CCC2	2010 to 8000 nM
Cc1nc(C2CC2)sc1S(=O)(=O)Nc1ccccc1N1CCC(CN2C[C@@H](C)O[C@@H](C)C2)CC1	≤ 2000 nM
C[C@@H]1CC(OC2CCN(c3c(F)cccc3NS(=O)(=O)c3ccc(S(=O)(=O)N(C)C)cc3)CC2)C[C@H](C)O1 (stereo partly drawn)	≤ 2000 nM
N#Cc1ccc(S(=O)(=O)Nc2ccccc2N2CCC(c3ccc(Cl)cc3F)CC2)cc1	2010 to 8000 nM

These entries and their values trace back to patent US20230104936A1.
